- Method Notes: amyloid nucleation score (Sup35N fusion, yeast selection) (log enrichment); library NNK2; higher = more nucleation; inactive = no reads after selection;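 note: zero at mode of non-aggregating sequences after 7 days selection at 30°C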
Where amyloid nucleation score equals or exceeds 0.5, the correct label is Yes; where it does not, the label is No.

Asked: Quick check, amyloid nucleation score >= 0.5? IVILTC
Given back: No

Asked: Quick check, amyloid nucleation score >= 0.5? IPMSRGVQF
Given back: Yes

Asked: Quick check, amyloid nucleation score >= 0.5? FNTGSSMLLLIRVMVGKFGG
Given back: No

Asked: Quick check, amyloid nucleation score >= 0.5? MDNHVLKFYRNDYKE
Given back: No

Asked: Quick check, amyloid nucleation score >= 0.5? YTTQLGWWFFRGRTTLNKWV
Given back: Yes

Asked: Quick check, amyloid nucleation score >= 0.5? VACIFCLSSPHPC
Given back: Yes

Asked: Quick check, amyloid nucleation score >= 0.5? CMIIKGCTVWVVRP
Given back: Yes

Asked: Quick check, amyloid nucleation score >= 0.5? PYLPLRYFCWGSK
Given back: No

Asked: Quick check, amyloid nucleation score >= 0.5? IDWIGPIYMHIAVMMVTVFQ
Given back: Yes

Asked: Quick check, amyloid nucleation score >= 0.5? GGCVYSVTLFFTWTEWGKAK
Given back: No

Asked: Quick check, amyloid nucleation score >= 0.5? HIGCYAPASISPLLNGEH
Given back: No

Asked: Quick check, amyloid nucleation score >= 0.5? GMVDLGVGSWCMEP
Given back: Yes

Asked: Quick check, amyloid nucleation score >= 0.5? HLFPAGRSKTHAVFWFQGKG
Given back: No

Asked: Quick check, amyloid nucleation score >= 0.5? VTVMTRLDFSTRSSATKPHG
Given back: Yes

Asked: Quick check, amyloid nucleation score >= 0.5? ALMHTNGTV
Given back: No

Asked: Quick check, amyloid nucleation score >= 0.5? SATRDYHRLWCVVRLLLNAA
Given back: No

Asked: Quick check, amyloid nucleation score >= 0.5? LCSWLEMGFIIRFAGIVRLD
Given back: No

Asked: Quick check, amyloid nucleation score >= 0.5? RVIHKFLYK
Given back: Yes

Asked: Quick check, amyloid nucleation score >= 0.5? NRRFSSGSVSSLKFLRSVWA
Given back: No

Asked: Quick check, amyloid nucleation score >= 0.5? ENVCCGVGSVYKSMLAAPPW
Given back: Yes

Asked: Quick check, amyloid nucleation score >= 0.5? TLLYKFTDCTVMMAIRVARR
Given back: Yes

Asked: Quick check, amyloid nucleation score >= 0.5? DVVFFVSYW
Given back: Yes

Asked: Quick check, amyloid nucleation score >= 0.5? VASGDSVLPKDIVFFSSIQG
Given back: No

Asked: Quick check, amyloid nucleation score >= 0.5? SFGENLVYCMRSIVTSPYRL
Given back: No

Asked: Quick check, amyloid nucleation score >= 0.5? VHGDMVFVCLTRCYRMF
Given back: Yes

Asked: Quick check, amyloid nucleation score >= 0.5? TYGWSLFERKLNPRGCWFPN
Given back: No

Asked: Quick check, amyloid nucleation score >= 0.5? TTLRPLYSTWGSQMVFPGLC
Given back: No

Asked: Quick check, amyloid nucleation score >= 0.5? SFYVIRVGSLPFRS
Given back: Yes

Asked: Quick check, amyloid nucleation score >= 0.5? TTVKYG
Given back: Yes

Asked: Quick check, amyloid nucleation score >= 0.5? SASDTRGCCQHIPVSLGILT
Given back: No

Asked: Quick check, amyloid nucleation score >= 0.5? TVLGTCPVNKVVDNSREAGS
Given back: Yes

Asked: Quick check, amyloid nucleation score >= 0.5? YDLSLVWWSTMFFRLCSLGC
Given back: No

Asked: Quick check, amyloid nucleation score >= 0.5? RNGVLAIGLY
Given back: No

Asked: Quick check, amyloid nucleation score >= 0.5? LRYRDASEALSYLCMQYDVI
Given back: Yes

Asked: Quick check, amyloid nucleation score >= 0.5? RVSLLMYGWRVGRTNVCGLC
Given back: Yes

Asked: Quick check, amyloid nucleation score >= 0.5? PAHVSYILSLCLINVC
Given back: Yes

Asked: Quick check, amyloid nucleation score >= 0.5? PFMRYPWYFIAGYV
Given back: No

Asked: Quick check, amyloid nucleation score >= 0.5? VTRHLVVLNKYKWLGRLSTI
Given back: No

Asked: Quick check, amyloid nucleation score >= 0.5? VLALYYINSATLILFLIFKS
Given back: No

Asked: Quick check, amyloid nucleation score >= 0.5? VFVMKMPWQSLISNLIFTSM
Given back: Yes

Asked: Quick check, amyloid nucleation score >= 0.5? FRIGFVFCVSYCRECRN
Given back: No

Asked: Quick check, amyloid nucleation score >= 0.5? NLKMDLLRFLHMSLRYISTR
Given back: No

Asked: Quick check, amyloid nucleation score >= 0.5? NERQEIIPDSSPETHVSNIT
Given back: Yes

Asked: Quick check, amyloid nucleation score >= 0.5? RARFHFVKTCSTQRSMPHMG
Given back: Yes

Asked: Quick check, amyloid nucleation score >= 0.5? LGPALFICSDEGDMPL
Given back: No

Asked: Quick check, amyloid nucleation score >= 0.5? LSSHPLGLGHTMGHRKF
Given back: Yes

Asked: Quick check, amyloid nucleation score >= 0.5? VRPRGTKRCFFGRNHWRSSF
Given back: No

Asked: Quick check, amyloid nucleation score >= 0.5? IGKSEYVEFRLTSSP
Given back: No

Asked: Quick check, amyloid nucleation score >= 0.5? PRMRWAVCERP
Given back: Yes

Asked: Quick check, amyloid nucleation score >= 0.5? KFNILPKLWMDICMIYLAVY
Given back: No

Asked: Quick check, amyloid nucleation score >= 0.5? IMNGLMDFMLTKVLKDMFNW
Given back: No

Asked: Quick check, amyloid nucleation score >= 0.5? EFYFSVRPVKLCFGLNVTNN
Given back: No

Asked: Quick check, amyloid nucleation score >= 0.5? DNCIDSCCYPLVSRVLEL
Given back: No

Asked: Quick check, amyloid nucleation score >= 0.5? LLERSRSSIMCTTNRSLELI
Given back: Yes

Asked: Quick check, amyloid nucleation score >= 0.5? LRVCNFCTFHFVWWS
Given back: Yes

Asked: Quick check, amyloid nucleation score >= 0.5? WSLDSYSMTAVF
Given back: No

Asked: Quick check, amyloid nucleation score >= 0.5? NKGVCDEVSVSSISVAIF
Given back: No

Asked: Quick check, amyloid nucleation score >= 0.5? SKMCCDMYISISCIIWSARR
Given back: No

Asked: Quick check, amyloid nucleation score >= 0.5? ERHNAELRHPAQYLEFTTLG
Given back: Yes

Asked: Quick check, amyloid nucleation score >= 0.5? VKTQSTVWSYR
Given back: No

Asked: Quick check, amyloid nucleation score >= 0.5? TFMWVDSMP
Given back: No

Asked: Quick check, amyloid nucleation score >= 0.5? ALDFSRSRDKGG
Given back: Yes

Asked: Quick check, amyloid nucleation score >= 0.5? FFSFGCGSWRTVIVTSRSL
Given back: No

* * *

- Method Notes: amyloid nucleation score (Sup35N fusion, yeast selection) (log enrichment); library NNK2; higher = more nucleation; inactive = no reads after selection
Value Type: amyloid nucleation score

[
  {
    "Sequence Record": "RRRGVLLTRPLKRQLVK",
    "amyloid nucleation score": "inactive"
  },
  {
    "Sequence Record": "VKVLSLVFTGMVPMQYSRYA",
    "amyloid nucleation score": 11.3
  },
  {
    "Sequence Record": "AISPVGYCDSTFVFSTSLCG",
    "amyloid nucleation score": 4.13
  },
  {
    "Sequence Record": "TAWHFPCRQRDLQLVSKVTG",
    "amyloid nucleation score": "inactive"
  },
  {
    "Sequence Record": "VRGRVAHRRMGSTFVISAES",
    "amyloid nucleation score": 0.266
  }
]

Asked: I'd like to know its amyloid nucleation score. The sequence in question is DLWTAWSRLHLDGG
Given back: 0.431

Asked: I'd like to know its amyloid nucleation score. The sequence in question is EFNCYGWKRRKRRCWGGKCR
Given back: 0.726

Asked: I'd like to know its amyloid nucleation score. The sequence in question is LMYSTFMYHRKHWLLALNQN
Given back: 0.034

Asked: I'd like to know its amyloid nucleation score. The sequence in question is MTYRSLPEYTDLLWVTYVER
Given back: 0.369

Asked: I'd like to know its amyloid nucleation score. The sequence in question is YMYILAVLSVSSLIVNYDLK
Given back: inactive

Asked: I'd like to know its amyloid nucleation score. The sequence in question is ALCGCPCRKPSATVINLPLF
Given back: 0.165

Asked: I'd like to know its amyloid nucleation score. The sequence in question is PRLKMLRWAGVNQS
Given back: -0.011

Asked: I'd like to know its amyloid nucleation score. The sequence in question is YLFKPSPTSHYCAFCTVYRN
Given back: 3.84

Asked: I'd like to know its amyloid nucleation score. The sequence in question is VIPYISYLDIGTLVLLAFID
Given back: -0.373
